Reference for the values: PubChem BioAssay AID1159580

- method: chemical genetic growth profiling, strain panel (AID 1159580);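 also: tested at 20 µM; growth read once vehicle control cultures reached saturation at 30 °C; 1 = growth at the plate median or of vehicle wells; lower values mean less growth of the strain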
- runParameters: S. cerevisiae deletion strains, growth OD, locus YLR418C, strain cdc73, hits give low values
Screen size: about 5,500 compounds; about 2,000 (36%) were called active. Roughly 18% stayed inconclusive and do not appear here. Some of the results follow.
Labelling field: enter true (1) if recorded normalized growth is less than 1. Enter false (0) if it equals or exceeds that cut-off.

Here's what some known entries look like.
compound="CCC(C)C(=O)OC1[C@@H]2CC3=C4CC(=O)O[C@@H](c5ccoc5)[C@]4(C)CCC3[C@@](C)(C2=O)[C@@H](CC(=O)OC)C1(C)C (stereo partly specified)" discretelabel="false (0)"
compound=CCOC(=O)NNc1nncc2ccccc12 discretelabel="true (1)"

normalized growth strictly < 1 for this compound? CC(=O)c1ccc(O)c(CC=C(C)C)c1
true (1)

----------
// reported normalized growth for each item listed
- method: chemical genetic growth profiling, strain panel (AID 1159580);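 also: tested at 20 µM; growth read once vehicle control cultures reached saturation at 30 °C; 1 = growth at the plate median or of vehicle wells; lower values mean less growth of the strain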
- runParameters: S. cerevisiae deletion strains, growth OD, locus YLR262C, strain YPT6 (second series), hits give low values
Hit rate of the full screen: of about 5,500 compounds, about 2,000 (36%) were called active. Inconclusive results (about 18%) are left out. The list shows a part of the results.
// keep it numeric: no unit symbol after the value

Use the examples below as a reference point.
compound=O=C(CC(=O)c1ccccc1)c1ccccc1 readoutnumber=0.101
compound=CC(C)=CCc1c2c(c3occ(-c4ccc(O)c(O)c4)c(=O)c3c1O)C=CC(C)(C)O2 readoutnumber=0.995
compound=O=C(OCc1ccccc1)c1ccccc1 readoutnumber=0.739

Proceed to the following item.
Looking up NCC(N)C(=O)c1ccccc1 (centres undefined) , I found its normalized growth recorded as 1.03

----------
- method: chemical genetic growth profiling, strain panel (AID 1159580);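 also: tested at 20 µM; growth read once vehicle control cultures reached saturation at 30 °C; 1 = growth at the plate median or of vehicle wells; lower values mean less growth of the strain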
- runParameters: S. cerevisiae deletion strains, growth OD, locus YDL005C, strain med2, hits give low values
In all, about 5,500 compounds went through this assay and about 2,000 (36%) were called active. Not shown: some 18% with an inconclusive outcome. Some of the results follow.
// reported normalized growth for each item listed
// keep it numeric: no unit symbol after the value

compound="CC12CCC(=O)C=C1CCC1C2[C@@H](O)CC2(C)C1CC[C@]2(O)C(=O)COP(=O)(O)O (stereo not given in full)" readoutnumber=0.997
compound=CCOC(=O)[C@H](CCc1ccccc1)N[C@@H](C)C(=O)N1CCC[C@H]1C(=O)O readoutnumber=0.995
compound=COC(=O)c1c(OC)cc2c(c1C)Oc1c(Cl)c(OC(C)=O)c(Cl)c(C)c1C(=O)O2 readoutnumber=1
compound=CN[C@@H]1[C@H](O)[C@H](NC)[C@H]2O[C@@]3(O)C(=O)C[C@@H](C)O[C@H]3O[C@@H]2[C@H]1O readoutnumber=1

Looking up CN(C)CCCN1c2ccccc2CCc2ccccc21 , I found its normalized growth recorded as 1.01

----------
- method: chemical genetic growth profiling, strain panel (AID 1159580);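 also: tested at 20 µM; growth read once vehicle control cultures reached saturation at 30 °C; 1 = growth at the plate median or of vehicle wells; lower values mean less growth of the strain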
- runParameters: S. cerevisiae deletion strains, growth OD, locus YNL307C, strain MCK1, hits give low values
Out of some 5,500 compounds screened, about 2,000 (36%) were called active. About 18% were inconclusive and are not listed. Some of the results follow.
reportedProperty: normalized growth
// keep it numeric: no unit symbol after the value

molecule="COc1ccccc1OCC(O)CO (stereo not drawn)" readoutnumber=0.99
molecule="CN(C)C1C(=O)C(C(N)=O)=C(O)C2(O)C(=O)C3=C(O)c4c(O)ccc(Cl)c4C(C)(O)C3CC12 (stereo not drawn)" readoutnumber=0.976

Proceed to the following item.
Looking up CN(C)[C@@H]1C(=O)C(C(N)=O)=C(O)[C@@]2(O)C(=O)C3=C(O)c4c(O)ccc(Cl)c4[C@@](C)(O)[C@H]3C[C@@H]12 , I found its normalized growth recorded as 1.01
